TARGET OR SYSTEM: Fuc(a1-2)Gal(b1-4)GlcNAc(b1-6)GalNAc
EXPERIMENT DESCRIPTION: glycan array binding signal (z-score within array); higher = stronger binding
MEASUREMENT CONDITIONS: glycan notation: IUPAC condensed, linker removed
The full list was thinned out, with the strongest signals kept by preference.
REPORTED PROPERTY: glycan array binding signal (z-score)

>  <BINDER>
Cohesin-hDCIR (Homo sapiens) (protein) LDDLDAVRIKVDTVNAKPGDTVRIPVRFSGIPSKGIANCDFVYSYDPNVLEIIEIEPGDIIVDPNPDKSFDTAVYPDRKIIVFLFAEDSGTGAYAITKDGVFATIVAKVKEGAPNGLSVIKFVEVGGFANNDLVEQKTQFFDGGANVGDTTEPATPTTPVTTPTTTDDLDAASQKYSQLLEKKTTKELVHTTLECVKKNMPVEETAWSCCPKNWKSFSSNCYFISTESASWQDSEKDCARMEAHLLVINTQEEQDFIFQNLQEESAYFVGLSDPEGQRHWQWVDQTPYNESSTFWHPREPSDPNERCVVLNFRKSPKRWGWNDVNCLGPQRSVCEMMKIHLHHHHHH

>  <REPORTED PROPERTY>
glycan array binding signal (z-score)

>  <VALUE OBSERVED>
5.99

$$$$
>  <BINDER>
Sebin1 (Coprinopsis cinerea), A8PEE3 (protein) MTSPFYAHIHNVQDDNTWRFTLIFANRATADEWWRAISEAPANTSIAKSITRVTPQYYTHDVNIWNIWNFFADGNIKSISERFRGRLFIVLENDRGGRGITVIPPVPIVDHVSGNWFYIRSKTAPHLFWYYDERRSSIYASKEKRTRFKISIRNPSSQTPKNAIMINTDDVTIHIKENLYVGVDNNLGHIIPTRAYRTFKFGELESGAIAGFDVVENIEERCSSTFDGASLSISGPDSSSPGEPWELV

>  <REPORTED PROPERTY>
glycan array binding signal (z-score)

>  <VALUE OBSERVED>
4.71

$$$$
>  <BINDER>
OrysaEULS2 (Oryza sativa) (protein) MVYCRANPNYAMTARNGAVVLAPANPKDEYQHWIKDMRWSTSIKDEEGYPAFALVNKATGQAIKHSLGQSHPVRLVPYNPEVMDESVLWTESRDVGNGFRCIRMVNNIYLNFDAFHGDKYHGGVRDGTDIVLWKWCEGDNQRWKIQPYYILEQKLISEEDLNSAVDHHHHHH

>  <REPORTED PROPERTY>
glycan array binding signal (z-score)

>  <VALUE OBSERVED>
-0.163

$$$$
>  <BINDER>
AT3G44510(29) (Arabidopsis thaliana), F4J341 (protein) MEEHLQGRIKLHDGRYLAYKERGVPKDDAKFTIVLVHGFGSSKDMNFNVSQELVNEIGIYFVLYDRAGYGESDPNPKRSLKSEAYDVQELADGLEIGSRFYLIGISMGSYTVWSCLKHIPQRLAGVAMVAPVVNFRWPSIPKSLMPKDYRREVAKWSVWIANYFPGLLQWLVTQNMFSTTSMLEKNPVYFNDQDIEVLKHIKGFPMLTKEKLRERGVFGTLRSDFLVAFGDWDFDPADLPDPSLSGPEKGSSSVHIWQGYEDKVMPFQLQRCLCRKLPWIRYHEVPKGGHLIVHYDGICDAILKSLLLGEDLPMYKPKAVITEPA

>  <REPORTED PROPERTY>
glycan array binding signal (z-score)

>  <VALUE OBSERVED>
-0.731

$$$$
>  <BINDER>
ERGIC1-EDTA (Homo sapiens), Q969X5 (protein) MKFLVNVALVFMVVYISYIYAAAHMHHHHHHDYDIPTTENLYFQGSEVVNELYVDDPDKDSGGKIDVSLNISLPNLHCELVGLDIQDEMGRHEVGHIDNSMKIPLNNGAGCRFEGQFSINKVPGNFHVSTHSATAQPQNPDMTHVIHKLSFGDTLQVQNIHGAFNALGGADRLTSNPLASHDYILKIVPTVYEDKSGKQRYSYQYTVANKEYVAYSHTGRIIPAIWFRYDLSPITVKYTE

>  <REPORTED PROPERTY>
glycan array binding signal (z-score)

>  <VALUE OBSERVED>
1.3

$$$$

Source of measurements: the supplement of paper PMC8728848
